Property: protein stability index; scope: individual variants
B1: TRIM63 (parent)
chain: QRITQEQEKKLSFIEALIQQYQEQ

variants of: B1; assay: protein stability index of a GFP-peptide fusion (GPS, HEK-293T) (PSI 1-6); higher = more stable; settings: c terminus: a fixed tail appended;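 also: lentivirally expressed fusions sorted by FACS into six bins by GFP to DsRed ratio, PSI derived from sequencing read proportions per bin multiplied by bin number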
Provide a numeric answer; units are not to be included.

Some variants with known protein stability index results, for comparison:
>  <sequence_string>
QNITQEQEKKLSFIEALIQQYQEQ [R2N]

>  <experimental_value>
2.91

$$$$
>  <sequence_string>
KRITQEQEKKLSFIEALIQQYQEQ [Q1K]

>  <experimental_value>
2.17

$$$$
>  <sequence_string>
QRITQEQEKKLSFIEALIQQYQRQ [E23R]

>  <experimental_value>
1.97

$$$$
>  <sequence_string>
QRITQEQEKKTSFIEALIQQYQEQ [L11T]

>  <experimental_value>
2.54

$$$$
>  <sequence_string>
QRITQEQEKKLSFIEALIQQYPEQ [Q22P]

>  <experimental_value>
3.12

$$$$

Next up:
Input: Quick one: give measured protein stability index for QRITQEQEKCLSFIEALIQQYQEQ [K10C]
Output: 2.04
